Molecular target: SRSF protein kinase 3 (Homo sapiens);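 further: values are mean inhibition of MSSK1 (alias of SRPK3)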
Conditions: at 1 µM
observationType: inhibition (%)
Give your result in % as a bare value.

[
  {
    "smilesStr": "CCS(=O)(=O)c1ccc(OC)c(Nc2ncc(-c3cccc(OC)c3)o2)c1",
    "measuredResult": 0.2
  },
  {
    "smilesStr": "COc1ccc(-c2nn3ncccc3c2-c2ccnc(Nc3cccc(C(F)(F)F)c3)n2)cc1",
    "measuredResult": -1.47
  },
  {
    "smilesStr": "COc1cc(Nc2nccc(-c3cnn4ncccc34)n2)cc(OC)c1",
    "measuredResult": -1.27
  },
  {
    "smilesStr": "CN(C)C(=O)O[C@@H]1CN[C@@H](C#Cc2cc3ncnc(Nc4ccc(OCc5cccc(F)c5)c(Cl)c4)c3s2)C1",
    "measuredResult": -1.97
  }
]

Data request: So what does the record say about inhibition for `CCn1c(-c2nonc2N)nc2ccc(F)cc21` ?
Data returned: -1.12

====

# inhibition values compiled below
Target: Leukocyte tyrosine kinase receptor (Homo sapiens) (UniProt P29376);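 further: each value is the mean inhibition of LTK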
Sequence (P29376 whole entry): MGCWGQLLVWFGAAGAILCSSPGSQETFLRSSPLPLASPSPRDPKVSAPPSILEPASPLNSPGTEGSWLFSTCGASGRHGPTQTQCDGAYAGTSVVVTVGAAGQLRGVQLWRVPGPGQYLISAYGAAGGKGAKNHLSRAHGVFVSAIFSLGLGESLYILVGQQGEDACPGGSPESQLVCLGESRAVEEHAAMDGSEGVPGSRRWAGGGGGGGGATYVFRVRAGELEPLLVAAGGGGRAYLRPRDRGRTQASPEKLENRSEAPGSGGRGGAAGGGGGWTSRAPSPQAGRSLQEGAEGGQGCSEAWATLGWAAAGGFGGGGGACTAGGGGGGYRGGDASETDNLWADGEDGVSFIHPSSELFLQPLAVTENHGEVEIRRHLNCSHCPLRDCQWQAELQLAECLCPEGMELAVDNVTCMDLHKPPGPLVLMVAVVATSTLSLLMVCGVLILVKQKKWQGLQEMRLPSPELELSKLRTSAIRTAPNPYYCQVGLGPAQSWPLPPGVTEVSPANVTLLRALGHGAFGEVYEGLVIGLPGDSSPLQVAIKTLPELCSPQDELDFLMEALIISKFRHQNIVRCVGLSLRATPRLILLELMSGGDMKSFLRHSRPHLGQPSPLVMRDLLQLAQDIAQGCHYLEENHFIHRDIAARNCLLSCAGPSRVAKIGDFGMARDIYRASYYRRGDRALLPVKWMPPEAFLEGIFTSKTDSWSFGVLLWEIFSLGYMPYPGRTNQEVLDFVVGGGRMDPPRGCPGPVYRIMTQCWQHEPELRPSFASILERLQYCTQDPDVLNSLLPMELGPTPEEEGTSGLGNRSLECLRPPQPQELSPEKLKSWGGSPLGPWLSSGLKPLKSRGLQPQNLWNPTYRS
Conditions: at 1 µM
Give your result in % as a bare value.

[
  {
    "compound": "c1ccc(Cc2nc3ccc(Nc4ncnc5ccccc45)cc3[nH]2)cc1",
    "inhibition [%]": 2.52
  },
  {
    "compound": "CS(=O)(=O)Nc1cccc(-c2ccc3c(NC(=O)C4CC4)n[nH]c3c2)c1",
    "inhibition [%]": 1.06
  }
]

Data request: So what does the record say about inhibition for `Cc1ccc(O)cc1Nc1ccnc2ccc(S(C)(=O)=O)cc12` ?
Data returned: 10.2

Data request: So what does the record say about inhibition for `CCn1c(-c2nonc2N)nc2c(C#CC(C)(C)O)nc(OCCNC)cc21` ?
Data returned: 4.95

Data request: So what does the record say about inhibition for `CCOc1nccc2c1nc(-c1nonc1N)n2CC` ?
Data returned: 2.99

Data request: So what does the record say about inhibition for `NC(=O)c1cccc(Nc2nccc(Nc3cccc(F)c3)n2)c1` ?
Data returned: 6.92

Data request: So what does the record say about inhibition for `COc1cc2ncn(-c3cc(OCc4ccccc4S(C)(=O)=O)c(C#N)s3)c2cc1OC` ?
Data returned: 7.89

Data request: So what does the record say about inhibition for `Cc1nc(-c2ccccc2)n2nc(NCCCN3CCOCC3)ncc12` ?
Data returned: 2.41

Data request: So what does the record say about inhibition for `O=S(=O)(CCOCc1ccc(-c2ccc3ncnc(Nc4ccc(OCc5cccc(F)c5)c(Cl)c4)c3c2)o1)c1ccccc1` ?
Data returned: 3.13

Data request: So what does the record say about inhibition for `COc1cccc(-n2ncc3c(N/N=C/c4ccc(C)cc4)ncnc32)c1` ?
Data returned: 8.61

Data request: So what does the record say about inhibition for `COC(=O)Nc1nc2cc(Oc3ccc(NC(=O)Nc4cccc(Br)c4)cc3)ccc2[nH]1` ?
Data returned: 3.57

Data request: So what does the record say about inhibition for `COc1cccc(-n2nc(C)c3c(N/N=C(\C)c4ccncc4)ncnc32)c1` ?
Data returned: 1.76

Data request: So what does the record say about inhibition for `COc1ccc(-c2nn3ncccc3c2-c2ccnc(Nc3cccc(C(F)(F)F)c3)n2)cc1` ?
Data returned: 2.59

Data request: So what does the record say about inhibition for `CN(C)C(=O)O[C@@H]1CN[C@@H](C#Cc2cc3ncnc(Nc4ccc(OCc5cccc(F)c5)c(Cl)c4)c3s2)C1` ?
Data returned: 0.68

Data request: So what does the record say about inhibition for `[O-][S+]1CCN(Cc2ccc(-c3ccc4ncnc(Nc5ccc(OCc6ccccc6)c(Cl)c5)c4c3)o2)CC1` ?
Data returned: 7.75

Data request: So what does the record say about inhibition for `COc1cc2ncnc(Nc3ccc(C)c(O)c3)c2cc1OC` ?
Data returned: 24.8

Data request: So what does the record say about inhibition for CCCN1CCCC(c2ccc(Nc3nc(Nc4cc(F)ccc4C(N)=O)c4cc[nH]c4n3)c(OC)c2)C1 (stereo not given) ?
Data returned: 95.5

Data request: So what does the record say about inhibition for `Cc1ccc(C(=O)NC2CC2)cc1-c1ccc2[nH]ncc2c1` ?
Data returned: -2.27

Data request: So what does the record say about inhibition for `COc1cc(Nc2nccc(-c3cnn4ncccc34)n2)cc(OC)c1` ?
Data returned: 34.1

Data request: So what does the record say about inhibition for `CN1CCN(C(=O)c2ccc(NC(=O)Nc3ccc(N(C)c4ccnc(Nc5ccc(CS(C)(=O)=O)cc5)n4)cc3)cc2)CC1` ?
Data returned: 10.7
